tested on: 521955-158-R2-J5-PDC complex spheroid viability; assay: Anticancer human tumor 521955-158-R2-J5-PDC patient-derived pancreatic carcinoma cell line growth inhibition [GQUAD]; settings: second compound 0.316 µM; first compound 0.0316 µM; active compounds read low;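 also: spheroids exposed to agents for one week before reading; 100% = DMSO vehicle control viability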
measurement_kind: viability, T/C (%)

Cc1cccc(N(C)C(=O)C2C(O)CCN2c2nc(C)cc(C(F)(F)F)c2C#N)c1 (configuration not stated) + CN(C)c1ccc(Nc2c3ccc(NC(=O)CCN4CCCC4)cc3nc3cc(NC(=O)CCN4CCCC4)ccc23)cc1	104
COc1cc(C2c3cc4c(cc3C(OC3OC5COC(C)OC5C(O)C3O)C3COC(=O)C23)OCO4)cc(OC)c1O (configuration not stated) + Cc1cnc(CNC(=O)c2c(=O)c3ccc(N4CCCN(C)CC4)nc3n3c2sc2ccccc23)cn1	45.2
CC(C)n1c(=O)n(C)c2cnc3cc(F)c(-c4ccc(OCCCN5CCCCC5)nc4)cc3c21 + Cc1cnc(CNC(=O)c2c(=O)c3ccc(N4CCCN(C)CC4)nc3n3c2sc2ccccc23)cn1	31.7
Cc1[nH]c2ccccc2c1CCNCc1ccc(/C=C/C(=O)NO)cc1 + CN(C)c1ccc(Nc2c3ccc(NC(=O)CCN4CCCC4)cc3nc3cc(NC(=O)CCN4CCCC4)ccc23)cc1	90.8
Cn1ncnc1[C@H]1c2n[nH]c(=O)c3cc(F)cc(c23)N[C@@H]1c1ccc(F)cc1 + Cc1[nH]c2ccc(F)cc2c1-c1nc2c3cccnc3c3ncccc3c2[nH]1	88.7
CC1COCCN1c1cc(-c2ccnn2C)c2ccnc(-c3ccn[nH]3)c2n1 (configuration not stated) + CN(C)c1ccc(Nc2c3ccc(NC(=O)CCN4CCCC4)cc3nc3cc(NC(=O)CCN4CCCC4)ccc23)cc1	69.6
COc1cccc2c1C(=O)c1c(O)c3c(c(O)c1C2=O)CC(O)(C(=O)CO)CC3OC1CC(N)C(O)C(C)O1 (configuration not stated) + CN(C)c1ccc(Nc2c3ccc(NC(=O)CCN4CCCC4)cc3nc3cc(NC(=O)CCN4CCCC4)ccc23)cc1	101
C=CCn1c(=O)c2cnc(Nc3ccc(N4CCN(C)CC4)cc3)nc2n1-c1cccc(C(C)(C)O)n1 + CN(C)c1ccc(Nc2c3ccc(NC(=O)CCN4CCCC4)cc3nc3cc(NC(=O)CCN4CCCC4)ccc23)cc1	82.6
COc1ncnc(C2CC2)c1-c1ncc2cnn(Cc3ccc(-c4nc(C(F)(F)F)cn4C(C)C)cc3)c2n1 + CN(C)c1ccc(Nc2c3ccc(NC(=O)CCN4CCCC4)cc3nc3cc(NC(=O)CCN4CCCC4)ccc23)cc1	95.4
O=C(c1cc(Cc2n[nH]c(=O)c3ccccc23)ccc1F)N1CCN(C(=O)C2CC2)CC1 + CN(C)c1ccc(Nc2c3ccc(NC(=O)CCN4CCCC4)cc3nc3cc(NC(=O)CCN4CCCC4)ccc23)cc1	93
CCc1c2c(nc3ccc(O)cc13)-c1cc3c(c(=O)n1C2)COC(=O)[C@]3(O)CC + CN(C)c1ccc(Nc2c3ccc(NC(=O)CCN4CCCC4)cc3nc3cc(NC(=O)CCN4CCCC4)ccc23)cc1	12.8
O=C(c1cc(Cc2n[nH]c(=O)c3ccccc23)ccc1F)N1CCN(C(=O)C2CC2)CC1 + Cc1[nH]c2ccc(F)cc2c1-c1nc2c3cccnc3c3ncccc3c2[nH]1	80.9

Data provenance is PubChem BioAssay AID2060495.
